Target of assay: human factor Xa (Homo sapiens)
Sequence (P00742 235-488 limits assumed): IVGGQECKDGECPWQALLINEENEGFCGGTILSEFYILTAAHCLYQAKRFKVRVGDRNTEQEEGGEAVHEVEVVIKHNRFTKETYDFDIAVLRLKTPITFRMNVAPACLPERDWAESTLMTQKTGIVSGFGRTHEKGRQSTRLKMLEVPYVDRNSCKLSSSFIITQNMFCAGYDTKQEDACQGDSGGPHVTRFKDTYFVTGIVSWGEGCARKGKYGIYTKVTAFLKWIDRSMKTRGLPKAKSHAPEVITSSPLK
Sequence (P00742 41-179 partner limits assumed): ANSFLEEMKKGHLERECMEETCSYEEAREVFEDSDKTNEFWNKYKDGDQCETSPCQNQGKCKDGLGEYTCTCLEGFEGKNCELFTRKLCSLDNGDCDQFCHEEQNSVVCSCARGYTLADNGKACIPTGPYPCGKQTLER
Experiment description: Factor Xa assay (chromogenic, substrate S-2765)
Format: biochemical
Quantity kind: log10(Ki) (log10 of the value in nM)
Values below are the log10 of the recorded Ki, with nM as the unit.

Answered examples (6):
# log10(Ki) (molecule: `O=C(c1cc2ccccc2n1Cc1cc(-c2ccc(Cl)s2)on1)N(c1ccncc1)C1CCN(c2ccncc2)CC1` ) is 1.87

# log10(Ki) (molecule: `CC(C)N1CCC(NC(=O)c2cc3cccc(Cl)c3n2Cc2cc(-c3ccc(Cl)s3)on2)CC1` ) is 0.85

# log10(Ki) (molecule: `O=C(c1cc2cc([N+](=O)[O-])ccc2n1Cc1cc(-c2ccc(Cl)s2)on1)N(c1ccncc1)C1CCN(c2ccncc2)CC1` ) is 1.53

# log10(Ki) (molecule: `Cc1ccc(C)c2c1cc(C(=O)NC1CCN(C(C)C)CC1)n2Cc1cc(-c2ccc(Cl)s2)on1` ) is 0.11

# log10(Ki) (molecule: `CC(C)N1CCC(NC(=O)c2c(C#N)c3ccccc3n2Cc2cc(-c3ccc(Cl)s3)on2)CC1` ) is -1.00

# log10(Ki) (molecule: `Cc1cccc2c(C#N)c(C(=O)NC3CCN(C(C)C)CC3)n(Cc3cc(-c4ccc(Cl)s4)on3)c12` ) is -1.00

// moving on: another record for log10(Ki)
# log10(Ki) (molecule: `CC(C)N1CCC(NC(=O)c2cc3c(Cl)cccc3n2Cc2cc(-c3ccc(Cl)s3)on2)CC1` ) is 0.70

---

Target of assay: human factor Xa (Homo sapiens)
Experiment description: Factor Xa assay (chromogenic, substrate S-2765);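 also: purified enzyme preincubated with inhibitor for 10 min before substrate addition, final reaction volume 100 µl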
Assay type: biochemical
Setup conditions: inhibition constant for factor Xa; purified enzyme 0.5 nM, substrate S-2765 140 μM, 25° C., pH 7.8; Ki=IC50/{1+(substrate concentration/Km)}; read-out: Ki(FXa)
pKi: −log10 of the molar value.
Each entry gets Not met if its pKi stays under 8, and Met if its pKi is 8 or above.

// known answers, use as guide
Given `CC(C)N1CCC(NC(=O)c2cc3cc(OCc4ccccc4)ccc3n2Cc2cc(-c3ccc(Cl)s3)on2)CC1` , state whether its pKi is at least 8.
Not met

Given `CC(C)N1CCC(NC(=O)c2cc3cc([N+](=O)[O-])ccc3n2Cc2cc(-c3ccc(Cl)s3)on2)CC1` , state whether its pKi is at least 8.
Met

Given `CC(C)N1CCC(NC(=O)c2cc3cccc([N+](=O)[O-])c3n2Cc2cc(-c3ccc(Cl)s3)on2)CC1` , state whether its pKi is at least 8.
Met

Given `O=C(c1cc2ccccc2n1Cc1cc(-c2ccc(Cl)s2)on1)N1CCC(Nc2ccncc2)CC1` , state whether its pKi is at least 8.
Not met

Given `CC(C)N1CCC(NC(=O)c2cc3ccccc3n2Cc2nc(-c3ccc(Cl)cc3)no2)CC1` , state whether its pKi is at least 8.
Not met

Given `CCN1CCC(NC(=O)c2cc3ccccc3n2Cc2cc(-c3ccc(Cl)s3)on2)CC1` , state whether its pKi is at least 8.
Not met

Given `O=C(NC1CCN(c2ccncn2)CC1)c1cc2ccccc2n1Cc1cc(-c2ccc(Cl)s2)on1` , state whether its pKi is at least 8.
Not met

Given `CC(C)N1CCC(NC(=O)c2cc3ccccc3n2Cc2cc(-c3ccc(Cl)s3)no2)CC1` , state whether its pKi is at least 8.
Met

Continuing:
Given `CCCN1CCC(NC(=O)c2cc3ccccc3n2Cc2cc(-c3ccc(Cl)s3)on2)CC1` , state whether its pKi is at least 8.
Not met

Given `CC(C)N1CCC(NC(=O)c2cc3ccccc3n2CC(=O)Nc2ccc(Cl)cc2)CC1` , state whether its pKi is at least 8.
Met

Given `O=C(NCC1CCN(c2ccncc2)CC1)c1cc2ccccc2n1Cc1cc(-c2ccc(Cl)s2)on1` , state whether its pKi is at least 8.
Not met

Given `CC(C)N1CCC(NC(=O)c2cc3cc(F)ccc3n2Cc2cc(-c3ccc(Cl)s3)on2)CC1` , state whether its pKi is at least 8.
Met

Given `O=C(NC1CCN(CCO)CC1)c1cc2ccccc2n1Cc1cc(-c2ccc(Cl)s2)on1` , state whether its pKi is at least 8.
Not met

Given `CC(C)N1CCC(NC(=O)c2cc3ccccc3n2Cc2cnc(-c3ccc(Cl)s3)s2)CC1` , state whether its pKi is at least 8.
Not met

Given `CC(C)N1CCC(NC(=O)c2cc3cc(Cl)ccc3n2Cc2cc(-c3ccc(Cl)s3)on2)CC1` , state whether its pKi is at least 8.
Met
